- System: MDA-MB-435 melanoma
- Protocol: NCI-60 one-dose screen, 48 h
- Experimental Conditions: 10 µM unless noted
- Description: Growth inhibition of the MDA-MB-435 human Melanoma tumor cell line is measured as a screen for anti-cancer activity. Cells are grown in 96 well plates and exposed to the test compound for 48 hours. Compounds are tested at a single concentration, which is 10^-5 M for most compounds. The reported endpoint is percent growth (GI% or GIPRCNT), where numbers from 0 - 100% represent growth inhibition, and numbers from -100% - 0 represent cell death. […]
This is part of a sample that, as a whole, favours compounds with a hit. Of some 83,000 tested, about 20% had one in any assay. Calls of active or inactive are those of the source. How the source made its calls: active means growth percent below 10; inactive means the rest.
Mark one answer only. Choices: y (active), n (inactive)

As a guide, the following entries are already answered.
{"Compound": "CC1CN=C(c2cccc(-c3ccc(-c4ccccc4)o3)c2)N1 (stereo not given)", "Target Or Test System": "MDA-MB-435 melanoma", "Qualitative Label": "y"}
{"Compound": "CC1(C)CC[C@]2(C(=O)O)CC[C@]3(C)C(=CC[C@@H]4[C@@]5(C)C[C@@H](Cc6cn([C@@H]7O[C@H](CO)[C@@H](O)[C@H](O)[C@H]7O)nn6)[C@H](O)C(C)(C)[C@@H]5CC[C@]43C)[C@@H]2C1", "Target Or Test System": "MDA-MB-435 melanoma", "Qualitative Label": "n"}
{"Compound": "CCOC(=O)c1c2c(n3ccccc13)C(=O)c1ncccc1C2=O", "Target Or Test System": "MDA-MB-435 melanoma", "Qualitative Label": "n"}
{"Compound": "CCCCCCCCn1ccc2cc(NC(=O)Cn3cc(CN4CCN(CC)CC4)nn3)ccc21", "Target Or Test System": "MDA-MB-435 melanoma", "Qualitative Label": "y"}
{"Compound": "CN1CCN(Cc2ccc(NC(=O)c3cncc(C#Cc4cncc5ncccc45)c3)cc2C(F)(F)F)CC1", "Target Or Test System": "MDA-MB-435 melanoma", "Qualitative Label": "n"}
{"Compound": "CC(C)(CO)N(CCO)CCO", "Target Or Test System": "MDA-MB-435 melanoma", "Qualitative Label": "n"}
{"Compound": "CCOC(=O)/C=C/c1c(C)[nH]c(=O)[nH]c1=O", "Target Or Test System": "MDA-MB-435 melanoma", "Qualitative Label": "n"}
{"Compound": "CCNC(=O)Oc1ccc(/C(=C(/C)Cc2ccc(OC)cc2)c2ccc(OCCN3CCCC3)cc2)cc1", "Target Or Test System": "MDA-MB-435 melanoma", "Qualitative Label": "n"}
{"Compound": "COc1ccc2c(c1)c(-c1nonc1-c1cn(C)c3ccc(OC)cc13)cn2C", "Target Or Test System": "MDA-MB-435 melanoma", "Qualitative Label": "y"}
{"Compound": "COC1=CC(c2ccc[nH]2)=N/C1=C\\c1[nH]c(C)c(CC(=O)OCc2ccccc2)c1C", "Target Or Test System": "MDA-MB-435 melanoma", "Qualitative Label": "y"}

What call does the record list for `CCOC(=O)c1c2c(n3c1NCC3)-c1ccccc1C2=O` ? n

Which outcome was assigned to `Cc1ncc(C(=O)Nc2ccc(CN3CCN(C)CC3)c(C(F)(F)F)c2)cc1C#Cc1cnc(N)c2cnccc12` in this test? y

Test call, this compound: `Cn1cc(-c2csc(-c3cn(C(=O)OC(C)(C)C)c4ccccc34)n2)c2ccnc(Cl)c21` n

Recorded test call requested for `CC(C)CCSc1nc(Nc2ccccc2)c(C#N)c(-c2ccccc2)n1` n

Dear colleague, could you share the recorded outcome for `N#Cc1c(N2CCOCC2)nc(=S)[nH]c1-c1ccccc1` when you have a moment? n

What outcome does the record of this test show for `Clc1nn2c(Cn3cnc4c(NCc5ccccc5)ncnc43)nnc2c2ccccc12` ? n

Dear all, I need the recorded test outcome for `Brc1ccc(-c2cnc3nonc3n2)cc1` , thank you. y

Name the outcome recorded for `Cc1cc2oc(=O)cc(CP(=O)(O)O)c2cc1O` in the assay. n

# fetch the recorded call for `Clc1ccc(-c2nc(-c3c[nH]c4ncccc34)cs2)cc1` here n

Would you mind telling me which call this test gave O=C1Nc2ccccc2C2c3cccn3-c3ccccc3N12 (stereo not given) ? y

Entry `C=CCn1c(SCC(=O)Nc2ccc(C(=O)/C=C/c3cc(OC)c(OC)c(OC)c3)cc2)nnc1-c1cc(-c2ccc(OC)cc2)nc2ccccc12` : call = ? n

Answer briefly: the call reported for `CCn1cc(CNc2ccc(C(=O)Nc3cc4cc(OC)c(OC)cc4c(C)n3)cc2)c(C)n1` in this assay. n

// return assay outcome for `COC(=O)c1ccc2c(c1)c1c(C)c3ccncc3c(C)c1n2C` n

For `COc1ccc2nc3cc(Cl)ccc3c(NCCN)c2c1` , which call appears in the assay record? y

How did this test come out for C=C(CO)[C@@H]1CC[C@]2(COC3CCCCO3)CC[C@]3(C)[C@H](CC[C@@H]4[C@@]5(C)C=C(C=O)C(=O)C(C)(C)[C@@H]5CC[C@]43C)[C@@H]12 (stereo not given in full) ? y
